Just for reference, paper PMC6440567 is where these values come from.

assay: Individual predicted steady‐state exposures; type: in vivo, human; details: human, plasma, AUCss,0–24 geometric mean (CV), Race: Japanese
valueKind: AUC (µg·h/mL)
One number for each entry, in µg·h/mL.

[[record]]
smilesrecord = "CC(C)(O/N=C(\\C(=O)N[C@@H]1C(=O)N2C(C(=O)[O-])=C(C[n+]3ccccc3)CS[C@H]12)c1csc(N)n1)C(=O)O"
testresult = 1020


Consider now this further compound.
Look up and state reported AUC for NC(=O)[C@@H]1CC[C@@H]2CN1C(=O)N2OS(=O)(=O)O 164

====

Please go through the items and note down their AUC.
test: Individual predicted steady‐state exposures; assay type: in vivo, human; conditions: human, plasma, intravenous, AUCss,0–24 geometric mean (CV), Asian population: Vietnam
Mention the unit after the number when you answer.

[[record]]
smilesrecord = "CC(C)(O/N=C(\\C(=O)N[C@@H]1C(=O)N2C(C(=O)[O-])=C(C[n+]3ccccc3)CS[C@H]12)c1csc(N)n1)C(=O)O"
valuekind = "AUC"
testresult = "852 µg·h/mL"


Look up and state reported AUC for NC(=O)[C@@H]1CC[C@@H]2CN1C(=O)N2OS(=O)(=O)O 146 µg·h/mL
